Catalogue of MIC readings, one per entry.
# System: Mycobacterium kansasii
# Run description: In vitro activity against Mycobacterium. kansasii (strain type-SWK).at pH 6.6
# Format: functional
State just the number; it will be interpreted in µg/mL.

Would you please look over these solved cases?
O=C(Oc1ccc([N+](=O)[O-])cc1)c1cnccn1; 200
CCCOC(=O)c1cnccn1; 12.5

Could you tell me which MIC is on file for "O=C(Oc1ccc(-c2ccccc2)cc1)c1cnccn1" ? 100

====

# Test system: Mycobacterium kansasii
# Run description: In vitro activity against Mycobacterium strain SCH (Mycobacterium kansasii)
# Type: functional
Readout name: MIC (µg/mL)
Hi! Could you send only the number? It should be in µg/mL, unit omitted.

Consider the reported MIC for these compounds:
O=C(OCC(F)(F)F)c1cnccn1; 25
CN(C)CCOC(=O)c1cnccn1; 50
CCCOC(=O)c1cnccn1; 12.5
C=CCOC(=O)c1cnccn1; 6.25

Which MIC reading was recorded for the compound "Cc1ccc(OC(=O)c2cnccn2)cc1" ? 12.5

====

Listing of entries alongside the reported MIC.
# System: Mycobacterium tuberculosis
# Run description: In vitro activity against Mycobacterium strain DOL (Mycobacterium tuberculosis)
# Assay type: functional
# Test settings: Mycobacterium tuberculosis; read-out: MIC
Form entry: value (µg/mL) — number only.

CN(C)CCOC(=O)c1cnccn1; 12.5

In the following, a different compound is considered.
I'd like to know its MIC. The compound in question is "Cc1ccc(OC(=O)c2cnccn2)cc1" 6.25
